Origin of values: patent US3995047A

- assay-details: in vivo
- Parameters: species or system male d,d-strain mice
- condition-context: mouse, po
attribute-measured: TD50 at 1 h (mg/kg)
Kindly answer with a numeric value in mg/kg, unit omitted.

# TD50 at 1 h of CCCc1ccc(C(=O)C(C)CN2CCCCC2)cc1.Cl (stereo not shown) [Compound B] = 800

Data point: Cc1ccc(C(=O)C(C)CN2CCCCC2)cc1.Cl (stereo not shown) [Compound for Control, reference compound] ; TD50 at 1 h = 800

So, CC(CN1CCCCC1)C(=O)c1ccc(C(C)C)cc1.Cl (stereo not shown) [Compound C] ? Its TD50 at 1 h was 84

Just so you know, measured TD50 at 1 h for CCc1ccc(C(=O)C(C)CN2CCCCC2)cc1.Cl (stereo not shown) [Compound A] came out at 640
